Overview of reported fold difference in affinity vs original across a group of binders:
target: binding partner of C5A (XPA23); test: Biacore K-off
Express the result in fold but write the number alone.

Returns the measured fold difference in affinity vs original for the input binder. Input: C5A (XPA23) VH K31R (antibody, V domains shown) VH: EVQLLESGGGLVQPGGSLRLSCAASGFTFSRYFMFWVRQAPGKGLEWVSVISPSGGMTRYADSVKGRFTISRDNSKNTLYLQMNSLRAEDTAVYYCARVGYGGNSDYWGQGTLVTVSS VL: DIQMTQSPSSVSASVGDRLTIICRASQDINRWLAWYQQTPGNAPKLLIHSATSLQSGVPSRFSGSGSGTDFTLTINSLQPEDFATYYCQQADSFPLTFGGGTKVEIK 0.9

Another: C5A (XPA23) VL D28H (antibody, V domains shown) VH: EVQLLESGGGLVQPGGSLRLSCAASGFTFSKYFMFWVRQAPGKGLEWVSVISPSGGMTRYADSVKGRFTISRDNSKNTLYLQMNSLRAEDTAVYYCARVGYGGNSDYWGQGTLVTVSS VL: DIQMTQSPSSVSASVGDRLTIICRASQHINRWLAWYQQTPGNAPKLLIHSATSLQSGVPSRFSGSGSGTDFTLTINSLQPEDFATYYCQQADSFPLTFGGGTKVEIK 1.23
